# IC50, FLIPR calcium mobilisation listing for each entry below
subject of test: rat nerve growth factor (beta-NGF) (rat, UniProt P25427 122-241)
Sequence (P25427 122-241): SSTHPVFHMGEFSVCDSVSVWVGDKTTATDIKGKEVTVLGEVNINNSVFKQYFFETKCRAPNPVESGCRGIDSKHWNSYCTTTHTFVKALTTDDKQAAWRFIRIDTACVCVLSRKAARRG
method summary: cell-based or functional assay
reported property: IC50, FLIPR calcium mobilisation (nM)

[[record]]
binder = "1230D8 human IgG4 (antibody, V domains shown) VH: QMQLVQSGAEVKKTGSSVKVSCKASGYTFPYHYLHWVRQAPGQGLEWMGGIIPIFGTTNYAQRFQDRVTITADESTSTAYMEFSSLRSEDTAVYYCASADYVWESYHPATSLSLWGRGTMVTVSS VL: QSVLTQPPSVSAAPGQKVTISCPGSTSNIGNNYVSWYQQRPGKAPKLMIYDVSKRPSGVPDRFSGSKSGNSASLDISELQSEDEADYYCAAWDDSLSEFLFGTGTKLTVL"
numeric_readout = 0.29

[[record]]
binder = "1160E3 human IgG4 (antibody, V domains shown) VH: EVQLVQSGAEVKKPGSSAKVSCKASGGTFSTYGISWVRQAPGQGLEWIGGIIPIFDTGNSAQSFQGRVTITADESTSTAYMEVSSLRSDDTAVYYCASSSRIYDLNPSLTAYYDMDVWGQGTMVTVSS VL: QAVLTQPSSVSTPPGQKVTISCSGSNSNIGNNYVSWYQQLPGTAPKLLIYDNNKRPSGIPDRFSGSKSGTSATLGITGLQTGDEADYYCGTWDSSLSAWVFGGGTKLTV"
numeric_readout = 0.13

[[record]]
binder = "1146D7 human IgG4 (antibody, V domains shown) VH: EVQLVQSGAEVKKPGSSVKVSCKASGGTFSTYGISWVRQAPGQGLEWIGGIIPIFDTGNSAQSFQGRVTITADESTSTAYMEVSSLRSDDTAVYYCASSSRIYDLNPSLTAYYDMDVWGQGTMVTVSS VL: QAVLTQPSSVSTPPGQEVTISCSGSSTNIGNNYVSWYQQLPGTAPKLLIYDNNKRPSGIPDRFSGSKSGTSATLGITGLQTGDEADYYCGTWDSSLSAWVFGGGTKLTVL"
numeric_readout = 0.33

[[record]]
binder = "1214D10 human IgG4 (antibody, V domains shown) VH: EVQLVQSGAEAKKPGSSVKVSCKASGGTFSTYGISWVRQAPGRGLEWIGGIIPIFDTGNSAQSFQGRVAITADESTSTAYMEVSSLRSDDTAVYYCASSSRIYDAHLNHHGYYDMDVWGQGTMVTVSS VL: QAVLTQPSSVSTPPGQKVTISCSGSSSNIGNNYVSWYQQLPGTAPKLLIYDNNKRPSGIPDRFSGSKSGTSATLGITGLQAGDEADYYCGTWDSSLSAWVFGGGTKLTVL"
numeric_readout = 0.14

[[record]]
binder = "1134D9 human IgG4 (antibody, V domains shown) VH: EVQLVQSGAEVKKPGSSVKVSCKASGGTFSTYGISWVRQAPGQGLEWIGGIIPIFDTGNSAQSFQGRVAITADESTSTAYMEVSSLRSDDTAVYYCASSSRIYDLNPSLTAYYDMDVWGQGTMVTVSS VL: QAVLTQPSSVSTPPGQKVTISCSGSSSNIGNNYVSWYQQLPGTAPKLLIYDNNKRPSGIPDRFSGSKSGTSATLGITGLQTGDEADYYCGTWDSGLSAWVFGGGTKLTVL"
numeric_readout = 0.14

[[record]]
binder = "G1230H7 human IgG4 (antibody, V domains shown) VH: QVQLVQSGAEVKKPGSSVKVSCKASGGTFSTYGISWVRQAPGQGLEWMGGIIPIFDTGNSAQSFQGRVTITADESTSTAYMELSSLRSEDTAVYYCARSSRIYDFNSALISYYDMDVWGQGTMVTVSS VL: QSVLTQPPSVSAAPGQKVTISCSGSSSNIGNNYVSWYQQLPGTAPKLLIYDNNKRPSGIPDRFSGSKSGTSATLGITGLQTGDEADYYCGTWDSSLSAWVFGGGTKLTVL"
numeric_readout = 0.34

[[record]]
binder = "1083H4 human IgG4 (antibody, V domains shown) VH: QMQLVQSGAEVKKTGSSVKVSCKASGYTFAYHYLHWVRQAPGQGLEWMGGIIPIFGTTNYAQRFQDRVTITADESTSTAYMELSSLRSEDTAVYYCASADYVWGSYRPDWYFDLWGRGTMVTVSS VL: QSVLTQPPSASGTPGQRVTISCSGSSSNIGSNTVNWYQRLPGAAPQLLIYNNDQRPSGIPDRFSGSKSGTSGSLVISGLQSEDEADYYCASWDDSLNGRVFGGGTKLTVL"
numeric_readout = 61

[[record]]
binder = "1218H5 human IgG4 (antibody, V domains shown) VH: EVQLVQSGAVVKKPGSSVKVSCKASGGTFSTYGISWVRQAPGQGLEWIGGIIPIFDTGSSAQSFQGRVTITADESTSTAYMEVSSLRSDDTAVYYCASSSRIYDLNPSLTAYYDMDVWGQGTMVTVSS VL: QAVLTQPSSVSTPPGQKVTISCSGSSSNTGNNYVSWYQQLSGTAPKLLIYDNNKRPSGIPDRFSGSKSGTSATLGITGLQTGDEADYYCGTWDSSLSAWVFGGGTKLTVL"
numeric_readout = 0.13

[[record]]
binder = "1131D7 human IgG4 (antibody, V domains shown) VH: EVQLVQSGAEVKKPGSSVKVSCKASGGTFSTYGISWVRQAPGQGLEWIGGIIPIFDTGNSAQSFQGRVTITADESTSTAYMEVSSLRSDDTAVYYCASSSRIYDFNSSLIAYYDMDVWGQGTMVTVSS VL: QAVLTQPSSVSTPPGQKVTISCSGSSSNIGNNYVSWYQQLPGTAPKLLIYDNNKRPSGIPDRFSGSKSGTSATLGITGLQTGDETDYYCGTWDSSLSAWVFSGGTKLTVL"
numeric_readout = 37

[[record]]
binder = "1126G5 human IgG4 (antibody, V domains shown) VH: EVQLVQSGAEVKKPGSSVKVSCKASGGTFSTYGISWVRQAPGQGLEWIGGIIPIFDTGNSAQSFQGRVTITADESTSTAYMEVSSLRSDDTAVYYCASSSRIYDFTSGLAPYYDMDVWGQGTMVTVSS VL: QAVLTQPSSVSTPPGQKVTISCSGSSSNIGNNYVSWYQQLPGTAPKLLIYDNNKRPPGIPDRFSGSKSGTSATLGITGLQTGDEADYYCGTWDSSLSTWVFGGGTKLTVL"
numeric_readout = 0.16


Data origin, for the record: patent US20080107658A1
